- Protocol: Selectivity index, ratio of cytotoxic IC50 for HEK293 cells to EC50 for anti-parasitic activity against Trypanosoma brucei brucei 427 bloodstream parasites
- Type: toxicity, cell-based
- Experimental Setup: human, read-out: Ratio IC50/EC50
Measurement Label: selectivity ratio
Please give the numeric answer without any surrounding text.

Some molecules with recorded selectivity ratio:
- CCC(C)NC(=O)c1nc(-c2ccccc2F)cnc1N (stereo unspecified): 111
- Cc1cc(-c2cnc(N)c(C(=O)NC3CCCC3)n2)ccc1F: 3540
- Cc1cccc(-c2cnc(N)c(C(=O)NC3CCCC3)n2)c1: 2380

Now look at this entry.
Any idea what selectivity ratio was measured for CCC(C)NC(=O)c1nc(-c2ccccc2[N+](=O)[O-])cnc1N (stereo unspecified) ?
94
